tested on: Burkholderia cepacia; test: Antimicrobial activity against Burkholderia cepacia complex isolated from cystic fibrosis patient by broth microdilution assay; assay type: functional
assay-readout: MIC90

{"smiles-record": "CCN1CCN(C(=O)N[C@@H](C(=O)N[C@@H]2C(=O)N3[C@@H]2SC(C)(C)[C@@H]3C(=O)O)c2ccccc2)C(=O)C1=O", "test-system": "Burkholderia cepacia", "experimental-value": "> 256 µg/mL"}
{"smiles-record": "O=C(N[C@H](CO)[C@H](O)c1ccc([N+](=O)[O-])cc1)C(Cl)Cl", "test-system": "Burkholderia cepacia", "experimental-value": "> 64 µg/mL"}
{"smiles-record": "CC(C)(O/N=C(\\C(=O)N[C@@H]1C(=O)N2C(C(=O)[O-])=C(C[n+]3ccccc3)CS[C@H]12)c1csc(N)n1)C(=O)O", "test-system": "Burkholderia cepacia", "experimental-value": "128 µg/mL"}
{"smiles-record": "CN(C)c1ccc(O)c2c1C[C@H]1C[C@H]3[C@H](N(C)C)C(O)=C(C(N)=O)C(=O)[C@@]3(O)C(O)=C1C2=O", "test-system": "Burkholderia cepacia", "experimental-value": "32 µg/mL"}
{"smiles-record": "C[C@H]1c2cccc(O)c2C(=O)C2=C(O)[C@]3(O)C(=O)C(C(N)=O)=C(O)[C@@H](N(C)C)[C@@H]3[C@@H](O)[C@@H]21.O", "test-system": "Burkholderia cepacia", "experimental-value": "> 32 µg/mL"}
{"smiles-record": "C[C@@H](O)[C@H]1C(=O)N2C(C(=O)O)=C(S[C@@H]3CN[C@H](C(=O)N(C)C)C3)[C@H](C)[C@H]12", "test-system": "Burkholderia cepacia", "experimental-value": "32 µg/mL"}
